Assay: Apparent permeability of the compound in phosphate buffer saline at 50 to 200 uM after 5 hrs by PAMPA
Format: ADME
readout-kind: Papp at 5 h, up to 200 µM (×10⁻⁶ cm/s)
Write the value in ×10⁻⁶ cm/s as a bare number.

Example results:
INSERT INTO results (line_notation, data_value) VALUES
  ('CN(C)Cc1ccc2c(-c3ccnc(N)n3)c(-c3ccc(F)cc3)nn2c1', 18.5),
  ('CN(C)Cc1cc2nc(-c3ccc(F)cc3)c(-c3ccnc(N)n3)n2cn1', 5.8),
  ('CN(C)Cc1ccc2c(c1)nc(-c1ccc(F)cc1)n2-c1ccnc(N)n1', 3.2);

Looking up CN(C)Cc1ccn2c(-c3ccnc(N)n3)c(-c3ccc(F)cc3)nc2n1 , I found its Papp at 5 h, up to 200 µM recorded as 11.8
